Here, each record is paired with measured inhibition at 1 µM data.
molecular target: Human PI3K delta (Homo sapiens); construct: His (N); host or cells: SF9 insect cells (baculovirus); assay: Human PI3K delta enzyme assay (HTRF); format: biochemical; conditions: at a 1.0 μM concentration; read-out: PI3Kδ Percent Inhibition
Sequence (O00329 whole entry): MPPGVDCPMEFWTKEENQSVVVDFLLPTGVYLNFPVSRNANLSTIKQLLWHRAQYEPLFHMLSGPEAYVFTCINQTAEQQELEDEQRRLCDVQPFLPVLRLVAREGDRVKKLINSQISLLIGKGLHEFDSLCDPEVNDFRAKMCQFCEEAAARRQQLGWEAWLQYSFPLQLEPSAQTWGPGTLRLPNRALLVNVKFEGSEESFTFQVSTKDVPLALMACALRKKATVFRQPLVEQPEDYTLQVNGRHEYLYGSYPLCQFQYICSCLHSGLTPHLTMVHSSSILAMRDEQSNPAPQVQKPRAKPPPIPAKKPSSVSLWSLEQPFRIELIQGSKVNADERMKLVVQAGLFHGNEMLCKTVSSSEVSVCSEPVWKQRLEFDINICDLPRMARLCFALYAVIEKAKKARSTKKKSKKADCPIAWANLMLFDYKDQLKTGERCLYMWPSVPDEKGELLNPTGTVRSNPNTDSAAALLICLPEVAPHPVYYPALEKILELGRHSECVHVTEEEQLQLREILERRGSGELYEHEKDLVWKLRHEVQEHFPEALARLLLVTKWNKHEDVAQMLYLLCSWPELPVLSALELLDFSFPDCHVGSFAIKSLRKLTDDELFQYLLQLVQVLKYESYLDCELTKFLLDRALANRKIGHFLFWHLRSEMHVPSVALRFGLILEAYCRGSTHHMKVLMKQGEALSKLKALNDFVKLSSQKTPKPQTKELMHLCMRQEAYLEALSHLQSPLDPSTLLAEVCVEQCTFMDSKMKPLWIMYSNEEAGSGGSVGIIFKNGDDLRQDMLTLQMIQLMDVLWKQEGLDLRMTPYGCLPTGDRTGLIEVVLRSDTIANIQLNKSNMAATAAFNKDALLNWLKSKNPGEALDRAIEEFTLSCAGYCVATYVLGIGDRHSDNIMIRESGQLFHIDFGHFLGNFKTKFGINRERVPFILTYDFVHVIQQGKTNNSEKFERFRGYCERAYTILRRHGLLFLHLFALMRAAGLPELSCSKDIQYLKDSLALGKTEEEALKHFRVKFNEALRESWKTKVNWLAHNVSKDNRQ
Sequence (P27986 whole entry partner): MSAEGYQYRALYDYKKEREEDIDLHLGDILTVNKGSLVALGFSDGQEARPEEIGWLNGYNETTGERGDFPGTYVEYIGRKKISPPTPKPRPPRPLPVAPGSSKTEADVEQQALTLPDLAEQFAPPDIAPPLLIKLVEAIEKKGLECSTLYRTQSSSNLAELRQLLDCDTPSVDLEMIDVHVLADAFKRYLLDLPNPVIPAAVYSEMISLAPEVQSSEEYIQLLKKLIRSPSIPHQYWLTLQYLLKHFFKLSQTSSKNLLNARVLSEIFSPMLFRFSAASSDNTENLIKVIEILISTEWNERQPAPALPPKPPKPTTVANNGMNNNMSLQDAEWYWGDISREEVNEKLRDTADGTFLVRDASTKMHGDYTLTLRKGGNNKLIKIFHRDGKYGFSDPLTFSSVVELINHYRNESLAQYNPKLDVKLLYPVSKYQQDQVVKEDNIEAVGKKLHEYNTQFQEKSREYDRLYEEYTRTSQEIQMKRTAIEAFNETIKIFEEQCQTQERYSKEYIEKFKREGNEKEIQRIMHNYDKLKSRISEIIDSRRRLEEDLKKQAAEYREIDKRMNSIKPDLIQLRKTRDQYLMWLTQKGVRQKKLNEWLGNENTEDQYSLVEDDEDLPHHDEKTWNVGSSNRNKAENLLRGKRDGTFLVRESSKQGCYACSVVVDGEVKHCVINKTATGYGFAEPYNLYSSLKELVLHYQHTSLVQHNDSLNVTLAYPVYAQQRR
Structures can show the parent of a compound that is named as a salt.

molecule | inhibition at 1 µM [%]
N#Cc1c(N2CCOCC2)sc(C(=O)O)c1Cc1ccc(Cl)cc1 [Compound 116] | 83
COc1cc(Cc2c(C(=O)O)sc(N3CCOCC3)c2C#N)ccc1Cl [Compound 122] | 96.2
O=C(O)c1sc(N2CCOCC2)nc1Cc1ccc(Cl)cc1Cl [Compound 104] | 93
O=C(O)c1sc(N2CCOCC2)nc1Cc1ccc(Cl)c(Cl)c1 [Compound 114] | 113
O=C(O)c1sc(N2CCOCC2)nc1Cc1ccc(F)cc1Cl [Compound 99] | 55.4
N#Cc1c(N2CCOCC2)sc(C(=O)O)c1Cc1ccc(Cl)cc1F [Compound 123] | 96.8
N#Cc1c(N2CCOCC2)sc(C(=O)O)c1Cc1ccc(Cl)c(Cl)c1 [Compound 124] | 112
N#Cc1ccc(Cc2c(C(=O)O)sc(N3CCOCC3)c2C#N)cc1 [Compound 115] | 63
COc1ccc(Cc2nc(N3CCOCC3)sc2C(=O)O)cc1 [Compound 103] | 38.6
O=C(O)c1sc(N2CCOCC2)nc1Cc1ccc2ccccc2c1 [Compound 98] | 108
COc1cc(Cl)ccc1Cc1c(C(=O)O)sc(N2CCOCC2)c1C#N [Compound 125] | 85.1
O=C(O)c1sc(N2CCOCC2)nc1Cc1ccc(F)cc1 [Compound 119] | 62.6
COc1ccc(Cc2nc(N3CCOCC3)sc2C(=O)O)c(Cl)c1 [Compound 120] | 77
O=C(O)c1sc(N2CCOCC2)nc1Cc1ccc2cc(F)ccc2c1 [Compound 128] | 114
N#Cc1c(C2=CCOCC2)sc(C(=O)O)c1Cc1ccc(Cl)cc1 [Compound 95] | 86.1
COc1cc(Cc2c(C(=O)O)sc(N3CCOCC3)c2C#N)c(F)cc1Cl [Compound 127] | 100
N#Cc1c(N2CCOCC2)sc(C(=O)O)c1Cc1ccc(F)cc1 [Compound 97] | 89.8
O=C(O)c1sc(N2CCOCC2)nc1Cc1ccc(Cl)cc1 [Compound 91] | 84.8
O=C(O)c1sc(C2=CCOCC2)nc1Cc1ccc(Cl)cc1 [Compound 100] | 65.5
O=C(O)c1sc(N2CCOCC2)nc1Cc1ccc(OC(F)(F)F)cc1 [Compound 109] | 35.4
COc1ccc(Cc2c(C(=O)O)sc(N3CCOCC3)c2C#N)c(Cl)c1 [Compound 117] | 78.5
N#Cc1c(N2CCOCC2)sc(C(=O)O)c1Cc1ccc2ccccc2c1 [Compound 112] | 114
CC(c1ccc(Cl)cc1)c1nc(N2CCOCC2)sc1C(=O)O (stereo not drawn) [Compound 121] | 77.3
N#Cc1c(N2CCOCC2)sc(C(=O)O)c1Cc1ccc(Cl)c(F)c1 [Compound 94] | 102
O=C(O)c1sc(N2CCOCC2)nc1Cc1ccc(C(F)(F)F)cc1 [Compound 111] | 60.5
COc1ccc(Cc2c(C(=O)O)sc(N3CCOCC3)c2C#N)cc1 [Compound 105] | 51.2
O=C(O)c1sc(N2CCOCC2)nc1Cc1ccc(Cl)c(F)c1 [Compound 118] | 89.3
COc1ccc(Cc2c(C(=O)O)sc(N3CCOCC3)c2C#N)cc1Cl [Compound 108] | 99.6
N#Cc1c(N2CCOCC2)sc(C(=O)O)c1C(N)c1ccc(Cl)cc1 (stereo not drawn) [Compound 113, hydrochloride] | 78.8
N#Cc1c(N2CCOCC2)sc(C(=O)O)c1Cc1c(F)cc(Cl)cc1F [Compound 126] | 100
N#Cc1ccc(Cc2nc(N3CCOCC3)sc2C(=O)O)cc1 [Compound 93] | 46
N#Cc1c(N2CCOCC2)sc(C(=O)O)c1Cc1ccc(Cl)cc1Cl [Compound 96] | 96
N#Cc1c(N2CCOCC2)sc(C(=O)O)c1Cc1ccc(Br)cc1 [Compound 106] | 88.8
